These compounds were tested on C. neoformans ATCC90113; MIC is the recorded read-out.
Reply numerically in µg/mL, unit not repeated.

Below are worked cases with known answers.
Compound: CCCCCCCCOc1c(OC)cc(NC(C)CCCNC(=O)C2CCCN2)c2nc(C(C)(C)C)ccc12 (centres unmarked)
Units text: µg/mL
MIC: 5
--
Compound: CCCCCCCOc1c(OC)cc(NC(C)CCCNC(=O)C(N)CCSC)c2nc(C(C)(C)C)ccc12 (centres unmarked)
Units text: µg/mL
MIC: 10
--
Compound: CCCCCCOc1c(OC)cc(NC(C)CCCN)c2nc(C(C)(C)C)cc(C)c12 (centres unmarked)
Units text: µg/mL
MIC: 1.25

Please indicate recorded MIC of CCCCCCCCOc1c(OC)cc(NC(C)CCCNC(=O)C(N)C(C)CC)c2nc(C(C)(C)C)ccc12 (centres unmarked) measured with C. neoformans ATCC90113. 10

Quote C. neoformans ATCC90113 MIC for entry CCCCCOc1c(OC)cc(NC(C)CCCNC(=O)C(N)CC(C)C)c2nc(C(C)(C)C)ccc12 (centres unmarked) . 2.5

// output MIC; input CCCCCOc1c(OC)cc(NC(C)CCCNC(=O)C(N)CCCNC(=N)N)c2nc(C(C)(C)C)ccc12 (centres unmarked) ; system C. neoformans ATCC90113 2.5

Provide MIC, recorded with C. neoformans ATCC90113, of CCCCCCCOc1c(OC)cc(NC(C)CCCNC(=O)C(N)C(C)CC)c2nc(C(C)(C)C)ccc12 (centres unmarked) 2.5
